# study system: PmSiaT (Proteus mirabilis, UniProt B4EZY7)
# Construct: made in house
# Sequence (B4EZY7 whole entry): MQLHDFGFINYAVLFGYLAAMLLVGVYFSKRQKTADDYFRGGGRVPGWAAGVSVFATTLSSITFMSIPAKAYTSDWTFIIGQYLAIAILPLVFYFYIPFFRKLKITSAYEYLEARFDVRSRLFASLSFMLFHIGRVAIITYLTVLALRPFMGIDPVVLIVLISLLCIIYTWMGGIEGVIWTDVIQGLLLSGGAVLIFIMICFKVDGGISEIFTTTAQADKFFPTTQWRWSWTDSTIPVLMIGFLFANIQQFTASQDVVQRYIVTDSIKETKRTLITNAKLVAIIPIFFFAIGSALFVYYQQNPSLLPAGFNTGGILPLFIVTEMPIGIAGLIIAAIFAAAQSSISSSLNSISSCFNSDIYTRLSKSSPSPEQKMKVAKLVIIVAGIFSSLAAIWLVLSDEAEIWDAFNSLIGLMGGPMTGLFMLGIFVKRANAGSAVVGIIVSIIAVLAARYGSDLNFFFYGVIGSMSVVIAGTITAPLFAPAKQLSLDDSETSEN
# protocol notes: nanoDSF thermal shift assay, PmSiaT
# Assay type: binding
# condition summary: PmSiaT, experiment 3, first capillary, 1.25 mM
Assign met whenever Tm 3 does not fall below 50 °C; assign not met whenever it does.

In plain terms: is recorded Tm 3 at least 50 °C for CC(=O)N[C@H]1[C@H]([C@H](O)[C@H](O)CO)OC(C(=O)O)=C[C@@H]1O [Compound 9, reference compound] ?
not met

Is Tm 3 at least 50 °C? Consider O=C(CO)N[C@H]1[C@H]([C@H](O)[C@H](O)CO)OC(O)(C(=O)O)C[C@@H]1O (stereo partly shown) [Neu5Gc, 5-N-glycolyl neuraminic acid, reference compound]
not met

Quick check: does O=C(Cc1ccccc1)NC1C(O)CC(O)(C(=O)O)OC1C(O)C(O)CO (stereo not shown) have Tm 3 greater than or equal to 50 °C?
not met

Dear colleague, could you confirm whether CC(=O)NC1C(OCc2cc(Br)cc(Br)c2)CC(O)(C(=O)O)OC1C(O)C(O)CO (stereo not shown) has Tm 3 at or above 50 °C?
met

Can CC(=O)NC1C(O)CC(O)(C(=O)O)OC1C(O)C(C)O (stereo not shown) be said to have Tm 3 at or above 50 °C?
not met

Would you say CC(=O)NC1C(O)CC(O)(C(=O)O)OC1C(O)C(O)CI (stereo not shown) shows Tm 3 at minimum 50 °C?
not met

* * *

# study system: SaSiaT (Staphylococcus aureus)
# protocol notes: nanoDSF thermal shift assay, SaSiaT
# Assay type: binding
# condition summary: SaSiaT Tm, experiment 1, second capillary, 1.25 mM
assay metric: Replicate 1
Number first, unit second.

Field request: Replicate 1 | item: CC(=O)NC1C(OCc2ccc(Br)cc2)CC(O)(C(=O)O)OC1C(O)C(O)CO (stereo not drawn)
54.4 °C

Can you share its Replicate 1? I mean this molecule: CCC(=O)NC1C(O)CC(O)(C(=O)O)OC1C(O)C(O)CO (stereo not drawn)
40.9 °C

What Replicate 1 value was documented for this molecule, CC(=O)NC1C(O)CC(O)(C(=O)O)OC1C(O)C(O)CI (stereo not drawn) ?
49.3 °C

* * *

# study system: SaSiaT (Staphylococcus aureus, UniProt A0A0H2XJ46)
# Sequence (A0A0H2XJ46 entry or part of it): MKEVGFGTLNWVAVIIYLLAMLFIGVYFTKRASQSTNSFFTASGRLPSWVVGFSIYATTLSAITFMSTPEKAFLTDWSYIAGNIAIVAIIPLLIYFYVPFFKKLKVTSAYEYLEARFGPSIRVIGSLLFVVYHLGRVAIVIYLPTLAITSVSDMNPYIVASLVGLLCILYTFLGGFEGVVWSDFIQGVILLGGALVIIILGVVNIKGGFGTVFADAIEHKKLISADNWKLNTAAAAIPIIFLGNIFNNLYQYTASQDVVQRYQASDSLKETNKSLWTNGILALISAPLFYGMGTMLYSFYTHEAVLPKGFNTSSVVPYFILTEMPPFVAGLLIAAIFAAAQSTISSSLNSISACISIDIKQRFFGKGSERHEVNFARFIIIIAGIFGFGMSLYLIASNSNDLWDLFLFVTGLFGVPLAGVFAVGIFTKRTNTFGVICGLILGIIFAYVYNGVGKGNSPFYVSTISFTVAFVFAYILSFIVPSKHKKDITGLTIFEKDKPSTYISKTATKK
# protocol notes: nanoDSF thermal shift assay, SaSiaT
# Format: binding
# condition summary: SaSiaT, experiment 2, first capillary, 1.25 mM
assay metric: Tm2 (°C)
Number only, in °C; omit the unit.

I would be grateful if you could share the reported Tm2 for O=C(CO)N[C@H]1[C@H]([C@H](O)[C@H](O)CO)OC(O)(C(=O)O)C[C@@H]1O (stereo partly shown) [Neu5Gc, 5-N-glycolyl neuraminic acid, reference compound] .
53.2

// query Tm2 value for entry CC(=O)NC1C(OCc2ccc(C#N)cc2)CC(O)(C(=O)O)OC1C(O)C(O)CO (stereo not shown)
53.6

# input compound: CC(=O)N[C@H]1[C@H]([C@H](O)[C@H](O)CO)OC(O)(C(=O)O)C[C@@H]1O (stereo partly shown) [Neu5Ac, 5-N-acetyl neuraminic acid, reference compound] ; wanted: its Tm2
50.9

Looking for the measured Tm2 of CC(=O)NC1C(O)CC(O)(C(=O)O)OC1C(O)C(O)CI (stereo not shown) , can you help?
49.0

* * *

# study system: PmSiaT (Proteus mirabilis, UniProt B4EZY7)
# Construct: made in house
# protocol notes: nanoDSF thermal shift assay, PmSiaT
# Format: binding
# condition summary: PmSiaT Tm, experiment 3, second capillary, 1.25 mM
# Experimental: Nano-differential scanning fluorimetry (nanoDSF) is a high-throughput method that relies on the thermal stabilization of the folded protein state by a bound ligand.[33] The melting points of protein–inhibitor complexes were measured on a Prometheus NT.48 instrument from NanoTemper Technologies. […] The fluorescence was recorded at 330 and 350 nm and as a ratio of the two wavelengths. […] The melting temperatures have been measured in 3 separate experiments. […] This is calculated from Average 1. […]
Mark true only for Replicate 3 values smaller than 50 °C; exact matches and larger values are false.

Regarding CC(=O)NC1C(O)CC(O)(C(=O)O)OC1C(O)C(C)O (stereo not shown) [Compound 8f] , kindly confirm whether its Replicate 3 is beneath 50 °C.
true

Threshold test, Replicate 3 < 50 °C: CC(C)(C)C(=O)NC1C(O)CC(O)(C(=O)O)OC1C(O)C(O)CO (stereo not shown) [Compound 6c]
true

Does the reported Replicate 3 of O=C(NC1C(O)CC(O)(C(=O)O)OC1C(O)C(O)CO)c1ccccc1 (stereo not shown) [Compound 6d] stay below 50 °C?
true

Lab log: compare recorded Replicate 3 with 50 °C; is it strictly lower for CC(=O)NC1C(O)CC(O)(C(=O)O)OC1C(O)C(O)CBr (stereo not shown) [Compound 8d] ?
true

Threshold test, Replicate 3 < 50 °C: CC(C)C(=O)NC1C(O)CC(O)(C(=O)O)OC1C(O)C(O)CO (stereo not shown) [Compound 6b]
true

Does the reported Replicate 3 of the following compound sit strictly below 50 °C? O=C(CO)N[C@H]1[C@H]([C@H](O)[C@H](O)CO)OC(O)(C(=O)O)C[C@@H]1O (stereo partly shown) [Neu5Gc, 5-N-glycolyl neuraminic acid, reference compound]
true

Determine if CC(=O)N[C@H]1[C@H]([C@H](O)[C@H](O)CO)OC(C(=O)O)=C[C@@H]1O [Compound 9, reference compound] shows Replicate 3 strictly lower than 50 °C.
true

Regarding CC(=O)NC1C(OCc2ccc(Br)cc2)CC(O)(C(=O)O)OC1C(O)C(O)CO (stereo not shown) [Compound 3c] , kindly confirm whether its Replicate 3 is beneath 50 °C.
false

Does this compound meet the criterion Replicate 3 < 50 °C? CC(=O)NC1C(OCc2ccc(C#N)cc2)CC(O)(C(=O)O)OC1C(O)C(O)CO (stereo not shown) [Compound 3d]
false

Please let me know if O=C(CF)NC1C(O)CC(O)(C(=O)O)OC1C(O)C(O)CO (stereo not shown) [Compound 6f] shows Replicate 3 below 50 °C.
true

Please check: Replicate 3 for CC(=O)NC1C(O)CC(O)(C(=O)O)OC1C(O)C(O)CN=[N+]=[N-] (stereo not shown) [Compound 8g] , strictly under 50 °C or not?
true

Hello, is Replicate 3 of the following compound strictly smaller than 50 °C? CC(=O)NC1C(OCc2ccc(F)cc2)CC(O)(C(=O)O)OC1C(O)C(O)CO (stereo not shown) [Compound 3b]
false

Please state whether Replicate 3 is below 50 °C for CC(=O)NC1C(O)CC(O)(C(=O)O)OC1C(O)C(O)CCl (stereo not shown) [Compound 8c]
true
